- Target: T1, cynomolgus monkey CD71 extracellular domain (CD71-ECD) (cynomolgus monkey, UniProt H9EXL1 89-760 (rhesus entry))
- T1 construct: extracellular domain; It was captured on a Neutravidin plate; also called cynomolgus CD71-ECD
- T1 sequence (chain, as listed by the source): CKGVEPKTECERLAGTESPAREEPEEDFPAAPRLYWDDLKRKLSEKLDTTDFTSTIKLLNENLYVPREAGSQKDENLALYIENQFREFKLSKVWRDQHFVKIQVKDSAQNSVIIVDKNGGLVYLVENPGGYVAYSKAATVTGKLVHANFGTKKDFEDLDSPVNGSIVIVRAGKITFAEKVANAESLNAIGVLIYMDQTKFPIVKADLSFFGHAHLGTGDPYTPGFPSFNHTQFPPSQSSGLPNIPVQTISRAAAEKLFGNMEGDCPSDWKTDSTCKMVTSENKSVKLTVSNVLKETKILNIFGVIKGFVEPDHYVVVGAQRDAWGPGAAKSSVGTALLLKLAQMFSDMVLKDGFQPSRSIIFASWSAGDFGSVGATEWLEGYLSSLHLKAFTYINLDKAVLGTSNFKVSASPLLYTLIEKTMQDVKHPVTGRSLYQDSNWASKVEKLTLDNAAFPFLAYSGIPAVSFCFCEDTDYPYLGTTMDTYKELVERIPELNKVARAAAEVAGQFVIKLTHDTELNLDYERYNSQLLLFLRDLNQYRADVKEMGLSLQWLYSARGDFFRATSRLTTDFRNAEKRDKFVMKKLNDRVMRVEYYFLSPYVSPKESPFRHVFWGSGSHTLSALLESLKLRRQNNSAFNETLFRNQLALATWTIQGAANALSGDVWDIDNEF
- Assay Notes: capture ELISA, 20 nM antigen on Neutravidin plate, FN3 titrated 250 to 0.3 nM
Assay Metric: EC50 (nM)

Binder	Scale Unit	EC50
CD71-binding FN3 domain of SEQ ID NO: 447 (designed binder, Tencon-based FN3 domain) MLPAPKNLVVSRVTEDSARLSWTAPDAAFDSFFIGYLEPQPPGEAIYLYVPGSERSYDLTGLKPGTEYNVTIQGVKGGFPSYPLTAQFTT	nM	5
CD71-binding FN3 domain of SEQ ID NO: 472 (designed binder, Tencon-based FN3 domain) MLPAPKNLVVSRVTEDSARLSWTAPDAAFDSFFIGYLEPQPPGEAIELYVPGSERSYDLTGLKPGTEYNVTIQGVKGGFPSLPLVATFTT	nM	0.7

[I] CD71-binding FN3 domain of SEQ ID NO: 476 (designed binder, Tencon-based FN3 domain) MLPAPKNLVVSRVTEDSARLSWTAPDAAFDSFFIGYLEPQPPGEAIHLQVPGSERSYDLTGLKPGTEYNVTIQGVKGGFPSIPLIAVFTT
[II] CD71-binding FN3 domain of SEQ ID NO: 373 (designed binder, Tencon-based FN3 domain) MLPAPKNLVVSRVTEDSARLSWTAPDAAFDSFFIGYLEPQPPGEAISLFVPGSERSYDLTGLKPGTEYNVTIQGVKGGFPSDPLVASFTT
### Prompt Which one would you say has the larger EC50 value: I , or II ? API: response body contains the label of the selected item.
### Response I
(I: 17.7 nM, II: 1.6 nM)
